Values from the supplement of paper PMC13380429

System: Vero E6 infected with SARS-CoV-2
experiment-description: inhibition of SARS-CoV-2 cytopathic effect; higher = more antiviral protection, active = above 15
condition-description: 10000 nM; 48 h
Permitted responses: Y (active), N (inactive)

Worked examples, 4 molecules total:
molecule | class-name
CCC(=N\O)/C(C)=C/c1ccc(F)cc1 | N
CCCC(=O)C1CCN(c2ncnc3c2CN(C(=O)c2ccc(-c4ccccc4)cc2)CC3)CC1 | N
CCOc1ccc(-n2c([C@@H](C)N(Cc3cccnc3)C(=O)Cc3ccc(OC(F)(F)F)cc3)nc3ncccc3c2=O)cc1 (racemic) | N
CC[C@@H](CO)NCCN[C@@H](CC)CO | N

Recorded test call requested for `CC1(N2CCC(n3c([C@@H]4CCCNC4)nc4ccccc43)CC2)CCCCCCC1`
Y

Short answer needed: outcome of this test for Cc1ccnc2c1CCCC2C(N)=S (stereo not given) [isotiquimide] ?
N

# outcome recorded in this test, key = `Cc1ccc(-c2cc(C(F)(F)F)nn2-c2ccc(S(N)(=O)=O)cc2)cc1`
N

Tell me the assay call for `Cc1cc(C(=O)Nc2cccc(C(=O)Nc3cccc(C(F)(F)F)c3)c2)on1` please.
N

// param item: `Cc1[nH]cnc1CN1CCc2c(c3ccccc3n2C)C1=O` ; yields the recorded call
N

Could you check what this test reported for `C[C@@H]1NC(C)(C)CO[C@@]1(O)c1cccc(Cl)c1` ?
N

What did this assay record as the result for `NCCS(=O)(=O)O` ?
N

Could you kindly confirm the outcome this assay logged for `COc1ccccc1N1CCN(CCN2C(=O)c3ccccc3C(C)(C)C2=O)CC1` ?
N

GET /call?item= `COc1ccc2[nH]cc(CCNC(C)=O)c2c1` returns the recorded outcome of this test.
N

Field: outcome | Entry: O=c1n(CC2CO2)c(=O)n(CC2CO2)c(=O)n1CC1CO1 (stereo not given)
N

So what was the verdict on `Cc1nc2sccn2c(=O)c1CCN1CCC(=C(c2ccccc2)c2ccc(F)cc2)CC1` in this test?
N

----------
System: Vero E6 infected with SARS-CoV-2
experiment-description: morphology score (similarity to uninfected cells); higher = more like uninfected cells
condition-description: 24 h
morphology score of 0.1 or higher: satisfied. Under 0.1: not satisfied.

compound | assay-target | class-name
CCCc1nc(C(C)(C)O)c(C(=O)O)n1Cc1ccc(-c2ccccc2-c2nnn[nH]2)cc1 [olmesartan] (10 µM) | Vero E6 infected with SARS-CoV-2 | not satisfied

Could you please find out whether CC(C)C[C@H](NC(=O)[C@@H](Cc1c[nH]c2ccccc12)NC(=O)[C@H](Cc1ccc(O)cc1)NC(=O)[C@H](CO)NC(=O)[C@H](Cc1c[nH]c2ccccc12)NC(=O)[C@H](Cc1c[nH]cn1)NC(=O)[C@@H]1CCC(=O)N1)C(=O)N[C@@H](CCCNC(=N)N)C(=O)N1CCC[C@H]1C(=O)NCC(N)=O [triptorelin] (10 µM) has morphology score that meets 0.1 or exceeds it?
not satisfied

Decide: morphology score of O=C1[O][SbH]23[O]C(=O)C([O]2)C2[O][SbH]4([O]C(=O)C([O]4)C1[O]3)[O]C2=O [antimonyl] (10 µM) >= 0.1?
satisfied

// inclusive: morphology score at least 0.1? input: CC(=O)Oc1c(C)cc(OCC(O)CNC(C)C)c(C)c1C (centres undefined) [metipranolol] (10 µM)
not satisfied

Assess whether reported morphology score for C[N+](C)(C)CCOP(=O)(O)OC[C@H](O)CO [choline-alfoscerate] (10 µM) sits at 0.1 or higher.
not satisfied

Does the reported morphology score for C[C@H]1CNCCCN1S(=O)(=O)c1cccc2cncc(F)c12 [ripasudil] (10 µM) fall at or above the 0.1 mark?
satisfied

Identify whether the reported morphology score of the following compound is 0.1 or greater: CNCCC(Oc1ccc(C(F)(F)F)cc1)c1ccccc1 (centres undefined) [fluoxetine] (10 µM)
satisfied

Does the compound CN1CCN(C(=O)c2nc3ccc(Cl)cc3[nH]2)CC1 (10 µM) have recorded morphology score that is 0.1 or more?
satisfied

Kindly determine if morphology score recorded for CN1CCN(c2cc(-c3ccccc3)nc(N)n2)CC1 (10 µM) is above or exactly 0.1.
satisfied
